# collection of Ki values tested on UniProtKB P14842
# Sequence (P14842 whole entry): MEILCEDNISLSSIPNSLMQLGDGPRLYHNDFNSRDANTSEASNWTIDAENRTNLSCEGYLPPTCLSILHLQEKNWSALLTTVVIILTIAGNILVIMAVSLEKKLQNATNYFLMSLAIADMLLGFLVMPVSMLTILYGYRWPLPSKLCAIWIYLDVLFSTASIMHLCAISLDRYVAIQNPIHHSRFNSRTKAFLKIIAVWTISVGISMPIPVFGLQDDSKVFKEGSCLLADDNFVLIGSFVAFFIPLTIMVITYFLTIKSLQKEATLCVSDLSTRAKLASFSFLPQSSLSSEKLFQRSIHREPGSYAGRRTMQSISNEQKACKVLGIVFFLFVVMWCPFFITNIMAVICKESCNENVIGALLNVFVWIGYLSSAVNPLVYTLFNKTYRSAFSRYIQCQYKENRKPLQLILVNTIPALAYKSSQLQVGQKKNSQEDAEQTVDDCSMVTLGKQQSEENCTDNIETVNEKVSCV
Answers are plain numbers, in nM.

// worked examples, Ki included
Documented Ki of N#Cc1cccc(N2CCN(CCCCN3CCn4c(cc5ccccc54)C3=O)CC2)c1 : 389

Documented Ki of COc1cccc2cc3n(c12)CCN(CCCCN1CCn2c(cc4ccccc42)C1=O)C3 : 200

Documented Ki of COc1cccc2cc3n(c12)CCN(CCCCNC(=O)C1=Cc2ccccc2CN1)C3 : 164

Now for the compound whose Ki we want.
Documented Ki of COc1cccc2c1C1CCN(CCCCNC(=O)C3=Cc4ccccc4CN3)CC1=N2 (centres undefined) : 149
